Tested on: HL-60(TB) leukemia
Assay: NCI tumour cell line growth inhibition, 48 h
MEASUREMENT LABEL: TGI

For orientation, consider the following solved cases.
- COMPOUND: "C#C[C@H]1CCCCCC1O (some centres not stated)"
  TARGET ENTITY: "HL-60(TB) leukemia"
  VALUE: "> 100 µM"
- COMPOUND: "CC(C)(C)OC(=O)NCC(=O)NC1C/C(=N\\O)c2sccc21 (configuration not stated)"
  TARGET ENTITY: "HL-60(TB) leukemia"
  VALUE: "> 100 µM"
- COMPOUND: "CCOC(=O)C1=C(C)N2C(=NC3=C(CCC/C3=C\\c3ccc(Cl)cc3)C2c2ccc(Cl)cc2)S1 (configuration not stated)"
  TARGET ENTITY: "HL-60(TB) leukemia"
  VALUE: "9.24 µM"

Exam item: Please provide the recorded TGI for `Oc1c(Cl)cc(Cl)c2cccnc12` , tested on HL-60(TB) leukemia.
Marked response: 6.65 µM

Exam item: Enter reported TGI observed with HL-60(TB) leukemia for `CCCCCn1c(=O)c2c(=O)[nH][nH]c2c2ccccc21`
Marked response: > 100 µM

Exam item: Find the measured TGI: item `N#CC1(c2ccccc2)CCN(C2(c3ccccc3)CCCCC2)CC1` , target or system HL-60(TB) leukemia.
Marked response: > 100 µM

Exam item: Request: TGI, test system HL-60(TB) leukemia, entry `O=S(=O)(NC1=NCCN1C(=S)SN1CCn2c1nsc2=S)c1cccc(OC(F)(F)F)c1`
Marked response: > 100 µM

Exam item: Request: TGI, test system HL-60(TB) leukemia, entry COc1cc2c(c(OC)c1OC)-c1c(cc3c(c1OC)OCO3)CC(C)C(C)(O)C2OC(=O)c1ccccc1 (configuration not stated)
Marked response: 48.7 µM

Exam item: Provide value of TGI for this record tested with HL-60(TB) leukemia: `NNc1c2ccccc2nc2ccccc12`
Marked response: 16.9 µM

====

System: MDA-MB-435
Assay: NCI tumour cell line growth inhibition, 48 h
Lab note: anything with TGI at or over 10 µM counts as yes (1); the rest go in no (0).

Use these answered entries as a reference point.
- COMPOUND: "CCSc1nc(N)c(C#N)c(-c2ccco2)c1C#N"
  LABEL VALUE: "yes (1)"
- COMPOUND: "Clc1ccccc1NN(Cc1ccncc1)c1ccccc1Cl"
  LABEL VALUE: "yes (1)"
- COMPOUND: "COc1ccc2c(c1)CC1Cc3ccccc3CCN1C2 (stereo unspecified)"
  LABEL VALUE: "yes (1)"
- COMPOUND: "O=C1/C(=C/c2cccc(Br)c2)COc2ccc(O)c(O)c21"
  LABEL VALUE: "no (0)"
- COMPOUND: "O=c1[nH]c2cc3cccnc3c(Cl)c2nc1CBr"
  LABEL VALUE: "yes (1)"
- COMPOUND: "ONC1=Nc2ccccc2OCc2cc(Br)c(Br)cc2COc2ccccc2N=C1NO"
  LABEL VALUE: "yes (1)"

Exam item: Is reported TGI greater than or equal to 10 µM here: `Brc1cccc(-c2cc(-c3ccc4nccnc4c3)[nH]n2)c1`
Marked response: no (0)

Exam item: Hi team, for CCOC(=O)C1=C(C)N2C(=NC3=C(CCC/C3=C\c3ccc(Cl)cc3)C2c2ccc(Cl)cc2)S1 (stereo unspecified) , is the recorded TGI at or above 10 µM?
Marked response: yes (1)

Exam item: Evaluate `CCCCCn1c(=O)c2c(=O)[nH][nH]c2c2ccccc21` : TGI at minimum 10 µM?
Marked response: yes (1)
